TARGET ENTITY: GABARAP R28K (recombinant, BLI) (human, UniProt O95166 1-117, R28K)
ASSAY REMARKS: BLI
Ends that are not written are not given here.
ASSAY READOUT: Kd
Report field: quantity (unit follows the number).

These recorded examples may help you get a feel for the data.
What measured Kd goes with SKDSSCDTDDFVMVPAQFPGDLVA (also: biotin, position not given here) [ULK1 LIR peptide (biotinylated, BLI)] ?
0.39 µM

Any idea what its Kd is? The binder is PDSIDAHTFDFETIPHPNIEQTIH (also: biotin, position not given here) [FIP200 LIR peptide (biotinylated, BLI)]
12.5 µM

--- query ---
Consider the binder shown here: NISQKSDEEDFVKVEDLPLKLTIY (also: biotin, position not given here) [PCM1 LIR peptide (biotinylated, BLI)] What is its recorded Kd?
4.2 µM
